assay: Cmax in male dog at 20 mg/kg, po after 24 hrs; format: ADME, organism-based, Canis lupus familiaris; design: dose 20 mg/kg, route oral; conditions: in vivo
reported metric: Cmax (µg/mL)
Reply with just the number (in µg/mL).

Entry COCCN1CCC(C(=O)NO)(S(=O)(=O)c2ccc(Oc3ccc(OC(F)(F)F)cc3)cc2)CC1 : reported Cmax = ?
60.6

* * *

Observed IC50, system Interstitial collagenase (Homo sapiens).
Reply with just the number (in µM).

Reference set, count: 6
O=C(NO)C1(S(=O)(=O)c2ccc(Oc3ccc4c(c3)OCO4)cc2)CCN(C2CC2)CC1 | 1
O=C(NO)C1(S(=O)(=O)c2ccc(Oc3ccc(OC(F)(F)F)cc3)cc2)CCN(C2CC2)CC1 | 4
C#CCN1CCC(C(=O)NO)(S(=O)(=O)c2ccc(Oc3ccc4c(c3)OCO4)cc2)CC1 | 2
COCCN1CCC(C(=O)NO)(S(=O)(=O)c2ccc(Oc3ccc(C(C)C)cc3)cc2)CC1 | 10
O=C(NO)C1(S(=O)(=O)c2ccc(Oc3ccc(SC(F)(F)F)cc3)cc2)CCOCC1 | 5
O=C(NO)C1(S(=O)(=O)c2ccc(Oc3ccc(C(F)(F)F)cc3)cc2)CCOCC1 | 8

Entry C#CCN1CCC(C(=O)NO)(S(=O)(=O)c2ccc(Oc3ccc(OC(F)(F)F)cc3)cc2)CC1 : reported IC50 = ?
2.6

Entry CC(C)Oc1ccc(Oc2ccc(S(=O)(=O)C3(C(=O)NO)CCN(C4CC4)CC3)cc2)cc1 : reported IC50 = ?
0.77

Entry CCOc1ccc(Oc2ccc(S(=O)(=O)C3(C(=O)NO)CCN(C4CC4)CC3)cc2)cc1 : reported IC50 = ?
1

* * *

biological target: UniProt:P03956
Listing of entries alongside the reported IC50.

Reference set, count: 5
O=C(NO)C1(S(=O)(=O)c2ccc(Oc3ccc(OC(F)(F)F)cc3)cc2)CCN(Cc2ccccn2)CC1 | 6 µM
COCCN1CCC(C(=O)NO)(S(=O)(=O)c2ccc(Oc3ccc(OC(C)C)cc3)cc2)CC1 | 2 µM
CN1CCC(C(=O)NO)(S(=O)(=O)c2ccc(Oc3ccc(OC(F)(F)F)cc3)cc2)CC1 | > 10 µM
O=C(NO)C1(S(=O)(=O)c2ccc(Oc3cccc(C(F)(F)F)c3)cc2)CCOCC1 | > 10 µM
O=C(NO)C1(S(=O)(=O)c2ccc(Oc3ccc(OC(F)(F)F)cc3)cc2)CCN(CCO)CC1 | 4.5 µM

# input for lookup
Entry O=C(NO)C1(S(=O)(=O)c2ccc(Oc3ccc(C(F)(F)F)cc3)cc2)CCNCC1 : reported IC50 = ?
> 10 µM

* * *

Listing of entries alongside the reported bioavailability.
assay: Oral bioavailability in rat at 20 mg/kg; format: ADME, organism-based; details: in vivo
Reply with just the number (in %).

Entry O=C(NO)C1(S(=O)(=O)c2ccc(Oc3ccc(OC(F)(F)F)cc3)cc2)CCN(CCO)CC1 : reported bioavailability = ?
21.9

Entry O=C(NO)C1(S(=O)(=O)c2ccc(Oc3ccc(C(F)(F)F)cc3)cc2)CCN(CCN2CCOCC2)CC1 : reported bioavailability = ?
2.6

Entry O=C(NO)C1(S(=O)(=O)c2ccc(Oc3ccc(OC(F)(F)F)cc3)cc2)CCNCC1 : reported bioavailability = ?
6.7

* * *

target: Neutrophil collagenase (Homo sapiens, UniProt P22894)
Sequence (P22894 whole entry): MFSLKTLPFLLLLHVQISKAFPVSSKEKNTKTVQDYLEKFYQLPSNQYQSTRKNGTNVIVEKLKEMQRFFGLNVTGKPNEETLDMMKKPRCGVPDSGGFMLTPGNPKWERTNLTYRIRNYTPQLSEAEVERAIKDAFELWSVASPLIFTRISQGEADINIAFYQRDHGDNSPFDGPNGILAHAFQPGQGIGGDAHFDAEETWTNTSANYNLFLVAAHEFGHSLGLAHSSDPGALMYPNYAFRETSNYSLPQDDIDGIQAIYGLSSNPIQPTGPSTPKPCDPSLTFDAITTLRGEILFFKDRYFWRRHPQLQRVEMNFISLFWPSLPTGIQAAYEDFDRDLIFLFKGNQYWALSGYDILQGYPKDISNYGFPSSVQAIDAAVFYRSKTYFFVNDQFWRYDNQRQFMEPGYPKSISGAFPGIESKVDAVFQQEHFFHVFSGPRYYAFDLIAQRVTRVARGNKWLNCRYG
reported metric: IC50 (nM)
Reply with just the number (in nM).

Lab note: need IC50 for CCN1CCC(C(=O)NO)(S(=O)(=O)c2ccc(Oc3ccc(C(F)(F)F)cc3)cc2)CC1 on Neutrophil collagenase (Homo sapiens, UniProt P22894), anyone have it?
1.4

Lab note: need IC50 for CC(C)N1CCC(C(=O)NO)(S(=O)(=O)c2ccc(Oc3ccc(C(F)(F)F)cc3)cc2)CC1 on Neutrophil collagenase (Homo sapiens, UniProt P22894), anyone have it?
1.4

Lab note: need IC50 for COCCN1CCC(C(=O)NO)(S(=O)(=O)c2ccc(Oc3ccc4c(c3)OCO4)cc2)CC1 on Neutrophil collagenase (Homo sapiens, UniProt P22894), anyone have it?
1.2

Lab note: need IC50 for O=C(NO)C1(S(=O)(=O)c2ccc(Oc3ccc(OC(F)(F)F)cc3)cc2)CCOCC1 on Neutrophil collagenase (Homo sapiens, UniProt P22894), anyone have it?
0.9

Lab note: need IC50 for C#CCN1CCC(C(=O)NO)(S(=O)(=O)c2ccc(Oc3ccc(C(C)C)cc3)cc2)CC1 on Neutrophil collagenase (Homo sapiens, UniProt P22894), anyone have it?
1.6

Lab note: need IC50 for O=C(NO)C1(S(=O)(=O)c2ccc(Oc3ccc(-c4ccccc4)cc3)cc2)CCOCC1 on Neutrophil collagenase (Homo sapiens, UniProt P22894), anyone have it?
2.4

Lab note: need IC50 for O=C(NO)C1(S(=O)(=O)c2ccc(Oc3ccc4c(c3)OCCO4)cc2)CCN(C2CC2)CC1 on Neutrophil collagenase (Homo sapiens, UniProt P22894), anyone have it?
1.5

Lab note: need IC50 for O=C(NO)C1(S(=O)(=O)c2ccc(Oc3ccc(C(F)(F)F)cc3)cc2)CCNCC1 on Neutrophil collagenase (Homo sapiens, UniProt P22894), anyone have it?
2

Lab note: need IC50 for CC(C)N1CCC(C(=O)NO)(S(=O)(=O)c2ccc(Oc3ccc(OC(F)(F)F)cc3)cc2)CC1 on Neutrophil collagenase (Homo sapiens, UniProt P22894), anyone have it?
0.4

Lab note: need IC50 for O=C(NO)C1(S(=O)(=O)c2ccc(Oc3ccc(C(F)(F)F)cc3)cc2)CCN(C2CC2)CC1 on Neutrophil collagenase (Homo sapiens, UniProt P22894), anyone have it?
1.3

Lab note: need IC50 for O=C(NO)C1(S(=O)(=O)c2ccc(Oc3ccc(OC(F)(F)F)cc3)cc2)CCN(Cc2ccccn2)CC1 on Neutrophil collagenase (Homo sapiens, UniProt P22894), anyone have it?
0.6

* * *

experiment: Tmax in female mouse at 20 mg/kg, po after 24 hrs; assay type: ADME, organism-based; parameters: dose 20 mg/kg, route oral; details: in vivo
reported metric: Tmax (min)
Reply with just the number (in min).

Entry COCCN1CCC(C(=O)NO)(S(=O)(=O)c2ccc(Oc3ccc(OC(F)(F)F)cc3)cc2)CC1 : reported Tmax = ?
10

* * *

assay: Half life in rat at 20 mg/kg, po; type: ADME, organism-based; parameters: dose 20 mg/kg, route oral; settings: in vivo
reported metric: half-life (h)
Reply with just the number (in h).

Reference set, count: 5
O=C(NO)C1(S(=O)(=O)c2ccc(Oc3ccc(OC(F)(F)F)cc3)cc2)CCN(CCO)CC1 | 1.39
O=C(NO)C1(S(=O)(=O)c2ccc(Oc3ccc(C(F)(F)F)cc3)cc2)CCN(CCN2CCOCC2)CC1 | 0.94
O=C(NO)C1(S(=O)(=O)c2ccc(Oc3ccc(C(F)(F)F)cc3)cc2)CCNCC1 | 1.88
COCCN1CCC(C(=O)NO)(S(=O)(=O)c2ccc(Oc3ccc(SC(F)(F)F)cc3)cc2)CC1 | 2.99
CC(=O)N1CCC(C(=O)NO)(S(=O)(=O)c2ccc(Oc3ccc(OC(F)(F)F)cc3)cc2)CC1 | 1.06

Entry O=C(NO)C1(S(=O)(=O)c2ccc(Oc3ccc(C(F)(F)F)cc3)cc2)CCN(C2CC2)CC1 : reported half-life = ?
1.48

Entry C#CCN1CCC(C(=O)NO)(S(=O)(=O)c2ccc(Oc3ccc4c(c3)OCO4)cc2)CC1 : reported half-life = ?
0.843

Entry CCOCCN1CCC(C(=O)NO)(S(=O)(=O)c2ccc(Oc3ccc(OC(F)(F)F)cc3)cc2)CC1 : reported half-life = ?
1.66

* * *

Observed IC50, system Neutrophil collagenase (Homo sapiens, UniProt P22894).
Reply with just the number (in nM).

C#CCN1CCC(C(=O)NO)(S(=O)(=O)c2ccc(Oc3ccc(OC)cc3)cc2)CC1 | 10

# input for lookup
Lab note: need IC50 for O=C(NO)C1(S(=O)(=O)c2ccc(Oc3ccc(SC(F)(F)F)cc3)cc2)CCOCC1 on Neutrophil collagenase (Homo sapiens, UniProt P22894), anyone have it?
0.4

* * *

assay: Oral bioavailability in male dog at 20 mg/kg after 24 hrs; format: ADME, organism-based, Canis lupus familiaris; settings: in vivo
reported metric: bioavailability (%)
Reply with just the number (in %).

Entry COCCN1CCC(C(=O)NO)(S(=O)(=O)c2ccc(Oc3ccc(OC(F)(F)F)cc3)cc2)CC1 : reported bioavailability = ?
64

* * *

experiment: Oral bioavailability in female mouse at 20 mg/kg after 24 hrs; format: ADME, organism-based; conditions: in vivo
reported metric: bioavailability

Entry COCCN1CCC(C(=O)NO)(S(=O)(=O)c2ccc(Oc3ccc(OC(F)(F)F)cc3)cc2)CC1 : reported bioavailability = ?
80.8%

* * *

Target: Matrilysin (Homo sapiens, UniProt P09237)
Sequence (P09237 whole entry): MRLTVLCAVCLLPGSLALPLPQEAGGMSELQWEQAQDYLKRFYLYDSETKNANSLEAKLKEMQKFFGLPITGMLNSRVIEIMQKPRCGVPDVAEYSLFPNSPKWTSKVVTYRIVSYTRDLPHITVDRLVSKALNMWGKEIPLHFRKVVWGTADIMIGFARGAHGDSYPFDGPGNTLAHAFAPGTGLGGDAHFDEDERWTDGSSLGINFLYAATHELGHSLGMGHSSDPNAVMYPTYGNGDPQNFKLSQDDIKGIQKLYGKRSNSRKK
reported metric: pIC50
Would you please state pIC50, meaning minus log10 of the concentration in mol/L, as a bare number?

Reference set, count: 2
COCCN1CCC(C(=O)NO)(S(=O)(=O)c2ccc(Oc3ccc(SC(F)(F)F)cc3)cc2)CC1 | 5.05
COCCN1CCC(C(=O)NO)(S(=O)(=O)c2ccc(Oc3ccc(OC(F)(F)F)cc3)cc2)CC1 | 5.15

# input for lookup
Lab note: need pIC50 for O=C(NO)C1(S(=O)(=O)c2ccc(Oc3ccc(OC(F)(F)F)cc3)cc2)CCN(C2CC2)CC1 on Matrilysin (Homo sapiens, UniProt P09237), anyone have it?
5.15
